system: Mice; test: Chronic safety/toxicity, 4 weekly doses; format: in vivo; details: GJ103 50 mg/kg i.p., 4 weekly injections, 1 week after last
endpoint_label: ALT (U/L)
One number for each entry, in U/L.

Q: // ALT lookup, key: COc1cccc(-n2c(SCC(=O)O)nnc2-c2ccccn2)c1 [GJ103]
A: 30

====

test system: WT (C57BL/6J) mice; experiment: Acute safety/toxicity, single dose; format: in vivo; conditions: GJ103 10 mg/kg i.p., one dose, a week later
endpoint_label: GLOB

Q: // GLOB lookup, key: COc1cccc(-n2c(SCC(=O)O)nnc2-c2ccccn2)c1 [GJ103]
A: 1.5 g/dL
